assay: Pharmacokinetic study of Compound A alone and in combination with Indinavir in healthy human males (Example 11); format: in vivo; conditions: male, human, plasma, po, 1600 mg, 1600 mg single oral dose, suspension of sulfate salt, fasted, n=6; arithmetic mean
MEASUREMENT_NAME: Cmax (nM)
Return type: number; implicit unit nM.

**Query** Cmax lookup needed for `CC(C)(C)NC(=O)[C@@H]1CN(Cc2cc3ccccc3o2)CCN1C[C@@H](O)C[C@@H](Cc1ccccc1)C(=O)N[C@H]1c2ccccc2C[C@H]1O` , thanks.
**Result** 613

###

test: Pharmacokinetic study of Compound A in healthy human males (Example 10); format: in vivo; settings: male, plasma, po, 200 mg, 200 mg single oral dose, suspension of sulfate salt, fasted, mean of 6 subjects (CV %)
MEASUREMENT_NAME: Cmax (nM)
Return type: number; implicit unit nM.

**Query** Cmax lookup needed for `CC(C)(C)NC(=O)[C@@H]1CN(Cc2cc3ccccc3o2)CCN1C[C@@H](O)C[C@@H](Cc1ccccc1)C(=O)N[C@H]1c2ccccc2C[C@H]1O` , thanks.
**Result** 85
